Target: human recombinant ATX (Homo sapiens (Human), UniProt Q13822)
Assay: Autotaxin (ATX) activity Quanta Red assay
Details: 15 μM Rac-1-Palmitoyl-glycero-3-phosphocholine, 2 hours room temperature, determined in duplicate
measure: IC50 (nM)

a: CC1CCN(Cc2ccc(N3C[C@@H](C(=O)Nc4nnc(CCc5ccc(Cl)cc5)s4)CC3=O)cc2)CC1 [Compound F92]
b: CN1CCN(Cc2ccc(N3CC(C(=O)Nc4nnc(CCc5ccc(Cl)cc5)s4)CC3=O)cc2)CC1 (stereo not shown) [Compound F117]
c: CS(=O)(=O)NCc1ccc(N2C[C@H](NC(=O)c3nnc(CCc4ccc(Cl)cc4)s3)CC2=O)cc1 [Compound F214]
d: CN1CCC(C(=O)NCc2ccc(N3CC(C(=O)Nc4nnc(CCc5ccc(Cl)cc5)s4)CC3=O)cc2)CC1 (stereo not shown) [Compound F184]
Problem: Order the records by IC50, with each subsequent value no larger than the one before. Please reply with the labels ordered as requested. Many thanks.
Solution: c, d, b, a
(c: 134 nM, d: 45 nM, b: 4 nM, a: 1 nM)
